assay_explanation: Concentration of paracetamol and its metabolites in plasma, CSF and brain cortex by LC-MS/MS
test_context: both, Sprague Dawley, rat, plasma, intraperitoneal, Concentration in plasma, P4 rats; 30 min after ip paracetamol 15 mg/kg + fluvoxamine 1.5 mg/kg (PARA+FLX, n=4); median (IQR)

molecule: CC(=O)Nc1ccc(O)cc1 [Paracetamol, reference compound]
concentration at 30 min (ng/mL): 6500

====

assay_explanation: Concentration of paracetamol and its metabolites in plasma, CSF and brain cortex by LC-MS/MS
test_context: both, Sprague Dawley, rat, CSF, intraperitoneal, Concentration in CSF, P4 rats; 30 min after ip paracetamol 15 mg/kg + lithium 3.2 mg/kg (PARA+Li, n=4); median (IQR)

molecule: CC(=O)Nc1ccc(O)cc1 [Paracetamol, reference compound]
measurement_units: ng/mL
concentration at 30 min: 4700

====

assay_explanation: Concentration of paracetamol and its metabolites in plasma, CSF and brain cortex by LC-MS/MS
test_context: both, Sprague Dawley, rat, brain cortex, intraperitoneal, 15 mg/kg, Concentration in brain, P4 rats; 30 min after ip paracetamol 15 mg/kg monotherapy (PARA, n=4); median (IQR)

compound: CC(=O)Nc1ccc(O)cc1 [Paracetamol, reference compound]
concentration at 30 min: 8900 ng/mL

====

assay_explanation: Concentration of paracetamol and its metabolites in plasma, CSF and brain cortex by LC-MS/MS
test_context: both, Sprague Dawley, rat, brain cortex, intraperitoneal, Concentration in brain, P4 rats; 30 min after ip paracetamol 15 mg/kg + valproate 30 mg/kg (PARA+VPA, n=4); median (IQR) or individual values

compound: CC(=O)Nc1ccc(O)cc1 [Paracetamol, reference compound]
concentration at 30 min (ng/mL): 5300

====

assay_explanation: Concentration of paracetamol and its metabolites in plasma, CSF and brain cortex by LC-MS/MS
test_context: both, Sprague Dawley, rat, plasma, intraperitoneal, Concentration in plasma, P4 rats; 30 min after ip paracetamol 15 mg/kg + olanzapine 0.15 mg/kg (PARA+OLZ, n=4); median (IQR)

molecule: CC(=O)Nc1ccc(O)cc1 [Paracetamol, reference compound]
measurement_units: ng/mL
concentration at 30 min: 5600

====

assay_explanation: Concentration of paracetamol and its metabolites in plasma, CSF and brain cortex by LC-MS/MS
test_context: female, Sprague Dawley, rat, CSF, intraperitoneal, 15 mg/kg, Concentration in CSF, non-pregnant adult rats; 30 min after ip paracetamol 15 mg/kg monotherapy (PARA, n=6); median (IQR)
result_type: concentration at 30 min (ng/mL)

compound: CC(=O)Nc1ccc(O)cc1 [Paracetamol, reference compound]
recorded_number: 5300

====

assay_explanation: Concentration of paracetamol and its metabolites in plasma, CSF and brain cortex by LC-MS/MS
test_context: female, Sprague Dawley, rat, plasma, intraperitoneal, Concentration in plasma, non-pregnant adult rats; 30 min after ip paracetamol 15 mg/kg + digoxin 0.03 mg/kg (PARA+DIG, n=3); median (IQR)
result_type: concentration at 30 min (ng/mL)

compound: CC(=O)Nc1ccc(O)cc1 [Paracetamol, reference compound]
recorded_number: 4400

====

assay_explanation: Concentration of paracetamol and its metabolites in plasma, CSF and brain cortex by LC-MS/MS
test_context: female, Sprague Dawley, rat, brain, intraperitoneal, Concentration in brain, non-pregnant adult rats; 30 min after ip paracetamol 15 mg/kg + cimetidine 11 mg/kg (PARA+CIM, n=3); median (IQR)

compound: CC(=O)Nc1ccc(O)cc1 [Paracetamol, reference compound]
measurement_units: µg/mL
concentration at 30 min: 2.9

====

assay_explanation: Concentration of paracetamol and its metabolites in plasma, CSF and brain cortex by LC-MS/MS
test_context: both, Sprague Dawley, rat, plasma, intraperitoneal, Concentration in plasma, P4 rats; 30 min after ip paracetamol 15 mg/kg + digoxin 0.03 mg/kg (PARA+DIG, n=4); median (IQR)

compound: CC(=O)Nc1ccc(O)cc1 [Paracetamol, reference compound]
concentration at 30 min / ng/mL: 8200

====

assay_explanation: Concentration of paracetamol and its metabolites in plasma, CSF and brain cortex by LC-MS/MS
test_context: both, Sprague Dawley, rat, plasma, intraperitoneal, Concentration in plasma, P4 rats; 30 min after ip paracetamol 15 mg/kg + cimetidine 11 mg/kg (PARA+CIM, n=4); median (IQR)

compound: CC(=O)Nc1ccc(O)cc1 [Paracetamol, reference compound]
concentration at 30 min / ng/mL: 10600

====

assay_explanation: Concentration of paracetamol and its metabolites in plasma, CSF and brain cortex by LC-MS/MS
test_context: both, Sprague Dawley, rat, CSF, intraperitoneal, Concentration in CSF, P4 rats; 30 min after ip paracetamol 15 mg/kg + digoxin 0.03 mg/kg (PARA+DIG, n=4); median (IQR)
Description: Drug injection protocol is illustrated in Fig. 1. Male and female postnatal P4 pups and 7–8 week-old non-pregnant females were used. […] In combination therapy experiments, this dose was accompanied by one of the 7 other drugs (Table 1). […] Linear response range was determined in untreated control rat plasma for each compound at 0.1, 1, 10, 50, 100, 200, 400, and 800 µg/ml.

compound: CC(=O)Nc1ccc(O)cc1 [Paracetamol, reference compound]
measurement_units: ng/mL
concentration at 30 min: 6300

====

assay_explanation: Concentration of paracetamol and its metabolites in plasma, CSF and brain cortex by LC-MS/MS
test_context: both, Sprague Dawley, rat, CSF, intraperitoneal, 15 mg/kg, Concentration in CSF, P4 rats; 30 min after ip paracetamol 15 mg/kg monotherapy (PARA, n=4); median (IQR)
Method: Drug injection protocol is illustrated in Fig. 1. Male and female postnatal P4 pups and 7–8 week-old non-pregnant females were used. […] In combination therapy experiments, this dose was accompanied by one of the 7 other drugs (Table 1). […] Linear response range was determined in untreated control rat plasma for each compound at 0.1, 1, 10, 50, 100, 200, 400, and 800 µg/ml.

molecule: CC(=O)Nc1ccc(O)cc1 [Paracetamol, reference compound]
concentration at 30 min [ng/mL]: 7000

====

assay_explanation: Concentration of paracetamol and its metabolites in plasma, CSF and brain cortex by LC-MS/MS
test_context: female, Sprague Dawley, rat, CSF, intraperitoneal, Concentration in CSF, non-pregnant adult rats; 30 min after ip paracetamol 15 mg/kg + cimetidine 11 mg/kg (PARA+CIM, n=3); median (IQR)

molecule: CC(=O)Nc1ccc(O)cc1 [Paracetamol, reference compound]
concentration at 30 min (ng/mL): 2100

====

assay_explanation: Concentration of paracetamol and its metabolites in plasma, CSF and brain cortex by LC-MS/MS
test_context: both, Sprague Dawley, rat, brain cortex, intraperitoneal, Concentration in brain, P4 rats; 30 min after ip paracetamol 15 mg/kg + lamotrigine 6 mg/kg (PARA+LTG, n=5); median (IQR)
result_type: concentration at 30 min (ng/mL)

compound: CC(=O)Nc1ccc(O)cc1 [Paracetamol, reference compound]
recorded_number: 9900

====

assay_explanation: Concentration of paracetamol and its metabolites in plasma, CSF and brain cortex by LC-MS/MS
test_context: female, Sprague Dawley, rat, brain, intraperitoneal, Concentration in brain, non-pregnant adult rats; 30 min after ip paracetamol 15 mg/kg + olanzapine 0.15 mg/kg (PARA+OLZ, n=4); median (IQR)

compound: CC(=O)Nc1ccc(O)cc1 [Paracetamol, reference compound]
concentration at 30 min: 3900 ng/mL

====

assay_explanation: Concentration of paracetamol and its metabolites in plasma, CSF and brain cortex by LC-MS/MS
test_context: female, Sprague Dawley, rat, CSF, intraperitoneal, Concentration in CSF, non-pregnant adult rats; 30 min after ip paracetamol 15 mg/kg + digoxin 0.03 mg/kg (PARA+DIG, n=3); median (IQR)
result_type: concentration at 30 min

compound: CC(=O)Nc1ccc(O)cc1 [Paracetamol, reference compound]
result_type: concentration at 30 min
result: 4200 ng/mL

====

assay_explanation: Concentration of paracetamol and its metabolites in plasma, CSF and brain cortex by LC-MS/MS
test_context: female, Sprague Dawley, rat, brain, intraperitoneal, Concentration in brain, non-pregnant adult rats; 30 min after ip paracetamol 15 mg/kg + valproate 30 mg/kg (PARA+VPA, n=3); median (IQR)

molecule: CC(=O)Nc1ccc(O)cc1 [Paracetamol, reference compound]
concentration at 30 min: 7.5 µg/mL

====

assay_explanation: Concentration of paracetamol and its metabolites in plasma, CSF and brain cortex by LC-MS/MS
test_context: both, Sprague Dawley, rat, CSF, intraperitoneal, Concentration in CSF, P4 rats; 30 min after ip paracetamol 15 mg/kg + valproate 30 mg/kg (PARA+VPA, n=4); median (IQR)

molecule: CC(=O)Nc1ccc(O)cc1 [Paracetamol, reference compound]
concentration at 30 min: 6400 ng/mL

====

assay_explanation: Concentration of paracetamol and its metabolites in plasma, CSF and brain cortex by LC-MS/MS
test_context: both, Sprague Dawley, rat, CSF, intraperitoneal, Concentration in CSF, P4 rats; 30 min after ip paracetamol 15 mg/kg + fluvoxamine 1.5 mg/kg (PARA+FLX, n=4); median (IQR)
Description: Drug injection protocol is illustrated in Fig. 1. Male and female postnatal P4 pups and 7–8 week-old non-pregnant females were used. […] In combination therapy experiments, this dose was accompanied by one of the 7 other drugs (Table 1). […] Linear response range was determined in untreated control rat plasma for each compound at 0.1, 1, 10, 50, 100, 200, 400, and 800 µg/ml.

compound: CC(=O)Nc1ccc(O)cc1 [Paracetamol, reference compound]
measurement_units: ng/mL
concentration at 30 min: 9400
